meta.source: PubChem BioAssay (NCATS)

- ASSAY DETAILS: qHTS profiling for inhibitors of Plasmodium falciparum proliferation (AID 504749);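 also: 0% = DMSO vehicle and full inhibition = artemisinin control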
- EXPERIMENTAL PARAMETERS: P. falciparum in erythrocytes, SYBR Green DNA, 72 h; at 12.8 µM (top of the series); parasite line A
Records with an inconclusive call do not appear.
ENDPOINT NAME: activity, negative = inhibition (%)
Answers are plain numbers, in %.

NC(N)=NC[C@@H]1COC2(CCCCC2)O1 :: -12.1

Please supply activity, negative = inhibition for each of the following items, keeping them in order.
1. COc1ccc(C[C@@H]2c3cc(OC)c(OC)cc3CC[N@+]2(C)CCC(=O)OCCCCCOC(=O)CC[N@@+]2(C)CCc3cc(OC)c(OC)cc3[C@H]2Cc2ccc(OC)c(OC)c2)cc1OC
2. O=C(O)/C=C\c1ccc(Cn2ccnc2)cc1
3. C[n+]1ccccc1/C=N\O

[A]
[-5.94, 2.69, 14]
